Ref: the supplement of paper PMC11780869

Test system: Bacillus subtilis
ASSAY REMARKS: cleaved RNA product abundance (RNA/gDNA barcode ratio) relative to median wild-type variant (ratio to wild type); higher = more accumulation of the downstream cleavage product
ASSAY CONTEXT: experiment (reporter, strain, medium): exp 4a: truncated aprE reporter, strain BJT201 with 2% xylose (RNase J1 expressed); cleavage site: cggR-gapA (positions -7 to +36 mutated)
Listed here: items and their measured cleaved RNA product abundance.
METRIC: cleaved RNA product abundance

RESIDUE STRING	METRIC	ASSAY VALUE
ACAGACGAAGGAGCCGCAAAGAAGTTATTAAGGGATGAATAATTCCTCAATTTAAATATCTCTCACTTATTTAAA	cleaved RNA product abundance	0.0634
ACAGACGAAGGAGCCGCAAAGAAGTAATTAAGGGATGAATAATCCCTCAACATAAATATCTCTCACTTATTTAAA	cleaved RNA product abundance	0.21
ACAGACGAAGGAGCCGCAAAGAAGTTATTAAGGGTTTAATAATCCCTCAATATAAATATCTCTCACTTATTTAAA	cleaved RNA product abundance	0.667
ACAGACGAAGGAGCCGCAGAGAAGTTATTAAGGAATGAATAATCCCTCAATATAAATATCTCTCACTTATTTAAA	cleaved RNA product abundance	0.143
ACAGACGAAGGAGCCGCAAATAAGTTATTAAGGTTTGAATAATCCCTCAATATAAATATCTCTCACTTATTTAAA	cleaved RNA product abundance	0.0913
ACAGACGAAGGAGCCGCAAAGAAGTTATTAAGGGATGAATAATCACTCTATATAAATATCTCTCACTTATTTAAA	cleaved RNA product abundance	0.155
ACAGACGAAGGAGCCGCAAAGAAGTTATTAAGGGATCACTAATCCCTCAATATAAATATCTCTCACTTATTTAAA	cleaved RNA product abundance	1.19
ACAGACGAAGGAGCCGCAAATAAGTTATTAAGGGATGAATAATCCCTCAATAAAAATATCTCTCACTTATTTAAA	cleaved RNA product abundance	0.143
ACAGACGAAGGAGCCGCAAAGAAGTTATTAAGGGAAGAATAAACCCTCAATATAAATATCTCTCACTTATTTAAA	cleaved RNA product abundance	0.27
ACAGACGAAGGAGCCGCAAAGAAGTTCTTAAGGGATGAATAATACCTCAATATAAATATCTCTCACTTATTTAAA	cleaved RNA product abundance	0.14
ACAGACGAAGGAGCCGCAAAGAAGTTATTAAGGGAAGAATAATCGCTCAATATAAATATCTCTCACTTATTTAAA	cleaved RNA product abundance	0.114
ACAGACGAAGGAGCCGCAATGAACTTATTAAGGGATGAATAATCCCTCAATATAAATATCTCTCACTTATTTAAA	cleaved RNA product abundance	0.405
ACAGACGAAGGAGCCGCGAAGAAGTTATTAATGGATGAATAATCCCTCAATATAAATATCTCTCACTTATTTAAA	cleaved RNA product abundance	0.214
ACAGACGAAGGAGCCGCAAAGAAGTTATCAAGGGATAAATAATCCCTCAATATAAATATCTCTCACTTATTTAAA	cleaved RNA product abundance	0.234
ACAGACGAAGGAGCCGCAAAGAATTTATTAAGGGATGAATAATCCCTCAATATAAAAATCTCTCACTTATTTAAA	cleaved RNA product abundance	0.532
